koff values, listed per item
- target-system: T117-F MPER scaffold
- assay-comment: BLI

| binder | koff |
| --- | --- |
| 10E8v4 Fab (Fab, V domains shown) VH: EVRLVESGGGLVKPGGSLRLSCSASGFDFDNAWMTWVRQPPGKGLEWVGRITGPGEGWSVDYAESVKGRFTISRDNTKNTLYLEMNNVRTEDTGYYFCARTGKYYDFWSGYPPGEEYFQDWGQGTLVIVSS VL: SELTQDPAVSVALKQTVTITCRGDSLRSHYASWYQKKPGQAPVLLFYGKNNRPSGIPDRFSGSASGNRASLTITGAQAEDEADYYCSSRDKSGSRLSVFGGGTKLTVL | 0.00137 s⁻¹ |
| 10E8v4-P100fA-P100gA Fab (Fab, V domains shown) VH: EVRLVESGGGLVKPGGSLRLSCSASGFDFDNAWMTWVRQPPGKGLEWVGRITGPGEGWSVDYAESVKGRFTISRDNTKNTLYLEMNNVRTEDTGYYFCARTGKYYDFWSGYAAGEEYFQDWGQGTLVIVSS VL: ASELTQDPAVSVALKQTVTITCRGDSLRSHYASWYQKKPGQAPVLLFYGKNNRPSGIPDRFSGSASGNRASLTITGAQAEDEADYYCSSRDKSGSRLSVFGGGTKLTVL | 0.0583 s⁻¹ |
| 10E8v4-P100gA Fab (Fab, V domains shown) VH: EVRLVESGGGLVKPGGSLRLSCSASGFDFDNAWMTWVRQPPGKGLEWVGRITGPGEGWSVDYAESVKGRFTISRDNTKNTLYLEMNNVRTEDTGYYFCARTGKYYDFWSGYPAGEEYFQDWGQGTLVIVSS VL: ASELTQDPAVSVALKQTVTITCRGDSLRSHYASWYQKKPGQAPVLLFYGKNNRPSGIPDRFSGSASGNRASLTITGAQAEDEADYYCSSRDKSGSRLSVFGGGTKLTVL | 0.0314 s⁻¹ |
| 10E8v4-P100fA Fab (Fab, V domains shown) VH: EVRLVESGGGLVKPGGSLRLSCSASGFDFDNAWMTWVRQPPGKGLEWVGRITGPGEGWSVDYAESVKGRFTISRDNTKNTLYLEMNNVRTEDTGYYFCARTGKYYDFWSGYAPGEEYFQDWGQGTLVIVSS VL: ASELTQDPAVSVALKQTVTITCRGDSLRSHYASWYQKKPGQAPVLLFYGKNNRPSGIPDRFSGSASGNRASLTITGAQAEDEADYYCSSRDKSGSRLSVFGGGTKLTVL | 0.021 s⁻¹ |
| 10E8v4-H31FLC Fab (Fab, V domains shown) VH: EVRLVESGGGLVKPGGSLRLSCSASGFDFDNAWMTWVRQPPGKGLEWVGRITGPGEGWSVDYAESVKGRFTISRDNTKNTLYLEMNNVRTEDTGYYFCARTGKYYDFWSGYPPGEEYFQDWGQGTLVIVSS VL: SELTQDPAVSVALKQTVTITCRGDSLRSFYASWYQKKPGQAPVLLFYGKNNRPSGIPDRFSGSASGNRASLTITGAQAEDEADYYCSSRDKSGSRLSVFGGGTKLTVL | 0.0364 s⁻¹ |

FYI, the data here is from paper PMC8293163.
